- System: basal cells and pyramidal cells of the airway epithelium
- ASSAY DETAILS: miRNA expression in sorted basal cells versus pyramidal cells (ciliated + secretory), HTS and Agilent chips
- Design: species or system human
- MEASUREMENT CONTEXT: pyramidal cells (ciliated + secretory)
QUANTITY: Intensity of the level of expression in log2 in pyramidal cells (323(−)) (log2)
One number for each entry, in log2.

// solved cases for Intensity of the level of expression in log2 in pyramidal cells (323(−)) follow
* hsa-miR-30e: human miRNA, SEQ ID No. 36 (UGUAAACAUCCUUGACUGGAAG; expressed or natural sequence; listed as Homo sapiens) | 5.34
* hsa-miR-151-5p: human miRNA, SEQ ID No. 8 (UCGAGGAGCUCACAGUCUAGU; expressed or natural sequence; listed as Homo sapiens) | 6.51

Annotate the substance hsa-miR-148a: human miRNA, SEQ ID No. 7 (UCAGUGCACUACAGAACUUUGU; expressed or natural sequence; listed as Homo sapiens) with its measured Intensity of the level of expression in log2 in pyramidal cells (323(−)). 5.39
